Consider the following molecules; for each one, report its Effect.
# experiment-notes: Effect of compound on multidrug resistance in murine L-5178 cells at 40 ug/ml concentration; expressed as fluorescence activity ratio (treated/untreated cells)
# Assay type: functional, Mus musculus
One number for each entry.

O=C1/C(=C/c2ccc(O)cc2)CCC/C1=C\c1ccc([N+](=O)[O-])cc1 | 0.97

Hello, I would appreciate it if you could give Effect for each entry below.
1. COc1cc(/C=C2\Cc3ccccc3/C(=C\c3ccc([N+](=O)[O-])cc3)C2=O)cc(OC)c1OC
2. O=C1/C(=C/c2ccc(Cl)cc2)CCC/C1=C\c1ccc([N+](=O)[O-])cc1
3. COc1cc(/C=C2\Cc3ccccc3/C(=C\c3ccc([N+](=O)[O-])cc3)C2=O)ccc1O
4. O=C1/C(=C/c2ccc3c(c2)OCO3)Cc2ccccc2/C1=C\c1ccc([N+](=O)[O-])cc1
5. COc1ccc(/C=C2\Cc3ccccc3/C(=C\c3ccc([N+](=O)[O-])cc3)C2=O)cc1OC
6. COc1cc(/C=C2\CCC/C(=C\c3ccc([N+](=O)[O-])cc3)C2=O)ccc1O
7. COc1ccc(/C=C2\CCC/C(=C\c3ccc([N+](=O)[O-])cc3)C2=O)cc1
8. COc1ccc(/C=C2\Cc3ccccc3/C(=C\c3ccc([N+](=O)[O-])cc3)C2=O)cc1

Result:
120
0.94
123
3.87
55.9
0.83
0.82
7.68

Below are some molecules; for each one, tell me its Effect.
1. COc1ccc(/C=C2\CC/C(=C\c3ccc([N+](=O)[O-])cc3)C2=O)cc1
2. O=C1/C(=C/c2ccc([N+](=O)[O-])cc2)CCC/C1=C\c1ccc2c(c1)OCO2
3. O=C1/C(=C/c2ccc(O)cc2)Cc2ccccc2/C1=C\c1ccc([N+](=O)[O-])cc1
4. COc1ccc(/C=C2\CCC/C(=C\c3ccc([N+](=O)[O-])cc3)C2=O)cc1OC
5. COc1cc(/C=C2\CC/C(=C\c3ccc([N+](=O)[O-])cc3)C2=O)cc(OC)c1OC

Result:
0.69
1.23
39.3
47.3
6.62

Ask: Given `COc1cc(/C=C2\CCC/C(=C\c3ccc([N+](=O)[O-])cc3)C2=O)cc(OC)c1OC` , state its recorded Effect.
Result: 75.1

Reference source: ChEMBL document CHEMBL1141909
